System: full-length human prolyl-4-hydroxylase domain (PHD) enzymes, PHD1 and PHD2
Method description: TR-FRET assay, selectivity of compounds for PHD1 over PHD2 (ratio of Kis calculated from IC50s)
Format: biochemical
Test parameters: ratio of Kis (PHD2 Ki/PHD1 Ki), Kis calculated from TR-FRET IC50s by Cheng Prussoff equation; 1 uM 2-OG

- Molecule: "Cc1ccc2ccc(-c3cnc(C(=O)NCC(C)(C)C(=O)O)c(O)c3)c(F)c2n1"
  Selectivity of PHD1 over PHD2: "~1833 fold"
- Molecule: "CC(C)(CNC(=O)c1ncc(-c2ccc3c(=O)[nH]ncc3c2)cc1O)C(=O)O"
  Selectivity of PHD1 over PHD2: "~64 fold"
- Molecule: "CC(CNC(=O)c1ncc(-c2cccc(Cl)c2)cc1O)C(=O)O (stereo not drawn)"
  Selectivity of PHD1 over PHD2: "~12 fold"
- Molecule: "CC(C)(CNC(=O)c1ncc(-c2cnn(CCN3CCOCC3)c2)cc1O)C(=O)O"
  Selectivity of PHD1 over PHD2: "~495 fold"
- Molecule: "CC(C)(CNC(=O)c1ncc(-c2cccc(CN3CCCC3)c2)cc1O)C(=O)O"
  Selectivity of PHD1 over PHD2: "~95 fold"
- Molecule: "CC(C)(CNC(=O)c1ncc(-c2cnc(-c3ccccc3)s2)cc1O)C(=O)O"
  Selectivity of PHD1 over PHD2: "~1215 fold"
- Molecule: "CC(C)(CNC(=O)c1ncc(-c2cccc3ccccc23)cc1O)C(=O)O"
  Selectivity of PHD1 over PHD2: "~159 fold"
- Molecule: "CC(C)(CNC(=O)c1ncc(-c2cc3nc(Cl)ccc3s2)cc1O)C(=O)O"
  Selectivity of PHD1 over PHD2: "~271 fold"
- Molecule: "COc1ccc2cc(-c3cnc(C(=O)NCC(C)(C)C(=O)O)c(O)c3)ccc2c1"
  Selectivity of PHD1 over PHD2: "~1960 fold"
- Molecule: "O=C(O)CCNC(=O)c1ncc(-c2ccc3ccccc3c2)cc1O"
  Selectivity of PHD1 over PHD2: "~24 fold"
- Molecule: "CC(C)(CNC(=O)c1ncc(-c2cnn(-c3ccccc3)c2)cc1O)C(=O)O"
  Selectivity of PHD1 over PHD2: "~249 fold"
- Molecule: "CC(C)(CNC(=O)c1ncc(-c2ccc(S(=O)(=O)N3CCCC3)cc2CO)cc1O)C(=O)O"
  Selectivity of PHD1 over PHD2: "~113 fold"
- Molecule: "CC(C)(CNC(=O)c1nc(C#N)c(-c2cccc(Cl)c2)cc1O)C(=O)O"
  Selectivity of PHD1 over PHD2: "~4 fold"
- Molecule: "CC(C)(CNC(=O)c1ncc(-c2cnn(-c3cccc(C(F)(F)F)c3)c2)cc1O)C(=O)O"
  Selectivity of PHD1 over PHD2: "~25 fold"
- Molecule: "CC(C)(CNC(=O)c1ncc(-c2cccc(N)c2)cc1O)C(=O)O"
  Selectivity of PHD1 over PHD2: "~20 fold"
- Molecule: "CCOc1ccc2cc(-c3cnc(C(=O)NCC(C)(C)C(=O)O)c(O)c3)ccc2c1"
  Selectivity of PHD1 over PHD2: "~911 fold"
- Molecule: "CC(C)(C)OC(=O)N1CCc2sc(-c3cnc(C(=O)NCC(C)(C)C(=O)O)c(O)c3)cc2C1"
  Selectivity of PHD1 over PHD2: "~1605 fold"
- Molecule: "CC(C)(CNC(=O)c1ncc(-c2ccc3nccnc3c2)cc1O)C(=O)O"
  Selectivity of PHD1 over PHD2: "~124 fold"
- Molecule: "CC(C)(CNC(=O)c1ncc(-c2ccc3cc(O)ccc3c2)cc1O)C(=O)O"
  Selectivity of PHD1 over PHD2: "~113 fold"
- Molecule: "CC(C)(CNC(=O)c1ncc(-c2cccc(Oc3ccc(Cl)cc3)c2)cc1O)C(=O)O"
  Selectivity of PHD1 over PHD2: "~181 fold"
- Molecule: "CC(C)(CNC(=O)c1ncc(-c2cccc(Nc3ccc(Cl)cc3)c2)cc1O)C(=O)O"
  Selectivity of PHD1 over PHD2: "~213 fold"

* * *

Tested on: full-length human prolyl-4-hydroxylase domain (PHD) enzymes, PHD1 and PHD2
Method description: TR-FRET assay, selectivity of compounds for PHD1 over PHD2 (ratio of Kis calculated from IC50s)
Format: biochemical
Test parameters: ratio of Kis (PHD2 Ki/PHD1 Ki), Kis calculated from TR-FRET IC50s by Cheng Prussoff equation; 1 uM 2-OG
Some compounds, each annotated with its measured Selectivity of PHD1 over PHD2.

- Compound: "CC(C)(CNC(=O)c1ncc(-c2scc3c2OCCO3)cc1O)C(=O)O"
  Selectivity of PHD1 over PHD2: "~44 fold"
- Compound: "CC(C)(CNC(=O)c1ncc(-c2ccc3cc(Oc4ccc(Cl)cc4)ccc3c2)cc1O)C(=O)O"
  Selectivity of PHD1 over PHD2: "~31 fold"
- Compound: "COc1cc2c(-c3cnc(C(=O)NCC(C)(C)C(=O)O)c(O)c3)cn(C)c2cn1"
  Selectivity of PHD1 over PHD2: "~96 fold"
- Compound: "CC(C)(CNC(=O)c1ncc(-c2ccc3cc(OCCc4ccc(Cl)cc4)ccc3c2)cc1O)C(=O)O"
  Selectivity of PHD1 over PHD2: "~9 fold"
- Compound: "Cc1cccc2cc(-c3cnc(C(=O)NCC(C)(C)C(=O)O)c(O)c3)cnc12"
  Selectivity of PHD1 over PHD2: "~20 fold"
- Compound: "O=C(O)CCNC(=O)c1ncc(-c2cccc(Cl)c2)cc1O"
  Selectivity of PHD1 over PHD2: "~12 fold"
- Compound: "CCCn1cc(-c2cnc(C(=O)NCC(C)(C)C(=O)O)c(O)c2)cn1"
  Selectivity of PHD1 over PHD2: "~503 fold"
- Compound: "CC(C)(CNC(=O)c1ncc(-c2ccc3ccccc3c2)cc1O)C(=O)O"
  Selectivity of PHD1 over PHD2: "~1031 fold"
- Compound: "Cc1c(-c2cnc(C(=O)NCC(C)(C)C(=O)O)c(O)c2)ccc2ccccc12"
  Selectivity of PHD1 over PHD2: "~204 fold"
- Compound: "Cc1ccc2cc(-c3cnc(C(=O)NCC(C)(C)C(=O)O)c(O)c3)ccc2n1"
  Selectivity of PHD1 over PHD2: "~3740 fold"
- Compound: "CC(C)(CNC(=O)c1ncc(-c2cccc(COc3ccc(OC(F)(F)F)cc3)c2)cc1O)C(=O)O"
  Selectivity of PHD1 over PHD2: "~53 fold"
- Compound: "CC(C)(CNC(=O)c1ncc(-c2cnn3c2CCCC3)cc1O)C(=O)O"
  Selectivity of PHD1 over PHD2: "~49 fold"

Sourced from patent US20240336568A1
